Biological target: recombinant human Tyro3 (Homo sapiens (Human), UniProt Q06418)
Sequence (Q06418 41-890): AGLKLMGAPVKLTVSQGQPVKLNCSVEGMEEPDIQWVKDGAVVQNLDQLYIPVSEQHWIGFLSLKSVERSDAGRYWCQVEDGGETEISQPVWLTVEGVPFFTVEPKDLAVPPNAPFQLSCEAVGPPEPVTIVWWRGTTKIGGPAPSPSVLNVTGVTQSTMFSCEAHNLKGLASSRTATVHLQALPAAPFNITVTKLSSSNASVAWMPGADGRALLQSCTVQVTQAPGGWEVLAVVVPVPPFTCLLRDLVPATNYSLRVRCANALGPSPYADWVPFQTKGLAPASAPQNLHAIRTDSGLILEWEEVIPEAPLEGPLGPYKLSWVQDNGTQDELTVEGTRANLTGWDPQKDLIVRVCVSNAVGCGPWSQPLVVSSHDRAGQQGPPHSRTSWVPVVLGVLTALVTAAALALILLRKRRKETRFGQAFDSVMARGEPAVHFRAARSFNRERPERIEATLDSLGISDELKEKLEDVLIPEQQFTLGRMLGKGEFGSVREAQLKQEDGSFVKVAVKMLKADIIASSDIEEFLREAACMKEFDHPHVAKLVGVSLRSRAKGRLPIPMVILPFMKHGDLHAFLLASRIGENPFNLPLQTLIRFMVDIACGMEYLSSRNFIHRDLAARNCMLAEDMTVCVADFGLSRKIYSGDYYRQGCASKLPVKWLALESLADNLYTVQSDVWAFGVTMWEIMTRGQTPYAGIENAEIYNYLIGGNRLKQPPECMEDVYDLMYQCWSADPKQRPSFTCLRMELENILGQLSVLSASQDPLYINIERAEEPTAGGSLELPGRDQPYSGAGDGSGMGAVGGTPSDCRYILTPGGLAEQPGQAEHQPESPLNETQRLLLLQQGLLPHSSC
Assay: Tyro3 Enzymatic Assay
Details: radiometric [32P]-ATP kinase assay, Poly(Glu, Tyr) substrate, 2 nM enzyme
Assay readout: IC50

Task: Requested field: IC50. Item: CCc1[nH]c2ncc(-c3cn(C4CCN(CC)CC4)nc3F)cc2c1-c1ccc(OC)nc1
Output: 51 to 150 nM

Task: And COc1ccc(-c2c[nH]c3ncc(-c4cn(C5CCN(C)CC5)nc4F)cc23)cn1 ?
Output: 51 to 150 nM

Task: And COc1ccc(-c2c[nH]c3ncc(-c4ccn(C5CCN(C)CC5)n4)cc23)cn1 ?
Output: > 500 nM

Task: And COc1nn(C2CCN(C)CC2)cc1-c1cnc2[nH]c(Cl)c(-c3cccc(F)c3)c2c1 ?
Output: 51 to 150 nM

Task: And COc1nn(C2CCN(C(C)=O)CC2)cc1-c1cnc2[nH]cc(-c3cccc(F)c3)c2c1 ?
Output: > 500 nM

Task: And COc1ccc(-c2c[nH]c3ncc(-c4cnn(C5CCC(O)CC5)c4)cc23)cn1 (centres unmarked) ?
Output: 151 to 501 nM

Task: And COc1ccc(-c2c[nH]c3ncc(-c4cn(C5CCN(C)CC5)nc4Cl)cc23)cn1 ?
Output: < 50 nM

Task: And CCc1[nH]c2ncc(-c3cn(C4CCN(C)CC4)nc3OC)cc2c1-c1ccc(OC)nc1 ?
Output: 51 to 150 nM

Task: And COc1ccc(-c2c[nH]c3ncc(-c4cn(C5CCN(C)CC5)nc4C)cc23)cn1 ?
Output: 151 to 501 nM

Task: And CCc1[nH]c2ncc(-c3cn(C4CCN(C)CC4)nc3F)cc2c1-c1cccc(F)c1 ?
Output: 51 to 150 nM

Task: And CCOc1nn(C2CCN(C)CC2)cc1-c1cnc2[nH]cc(-c3ccc(OC)nc3)c2c1 ?
Output: < 50 nM

Task: And CCc1[nH]c2ncc(-c3cn(C4CCN(C)CC4)nc3OC)cc2c1-c1cccc(F)c1 ?
Output: 51 to 150 nM

Task: And COc1ccc(-c2c[nH]c3ncc(-c4cnn(CC5CCN(C)CC5)c4)cc23)cn1 ?
Output: 151 to 501 nM

Task: And COc1ccc(-c2c[nH]c3ncc(-c4cc(CN5CCCC(O)C5)n(C)n4)cc23)cn1 (centres unmarked) ?
Output: > 500 nM
